Target: T1, human NPS receptor, 107I variant (human) (UniProt Q6W5P4)
T1 sequence: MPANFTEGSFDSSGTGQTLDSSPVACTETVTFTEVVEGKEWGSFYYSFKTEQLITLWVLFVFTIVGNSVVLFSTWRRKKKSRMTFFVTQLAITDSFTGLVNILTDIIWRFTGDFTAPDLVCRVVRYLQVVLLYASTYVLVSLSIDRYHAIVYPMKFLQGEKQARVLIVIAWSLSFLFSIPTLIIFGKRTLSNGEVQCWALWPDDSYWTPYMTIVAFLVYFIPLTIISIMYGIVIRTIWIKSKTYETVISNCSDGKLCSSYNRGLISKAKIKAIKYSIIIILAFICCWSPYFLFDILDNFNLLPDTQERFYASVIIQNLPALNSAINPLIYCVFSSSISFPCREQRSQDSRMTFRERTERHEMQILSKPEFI
Where no end group is shown, it is not given here.
attributeMeasured: EC50 of cAMP accumulation, HEK 293T hNPSR-107I cells (nM)

[a] SFRNGV-NH2 [1. SerPheArgAsnGlyVal-NH2]
[b] SFRN-NH2 [3. SerPheArgAsn-NH2]
[c] SFRNG-NH2 [2. SerPheArgAsnGly-NH2]
-- ask Let's sort these by EC50 of cAMP accumulation, HEK 293T hNPSR-107I cells, smallest first. Go ahead? Sort and list the labels as requested.
-- reply a, b, c

[I] SFRNGVGTGMKKTSFQRAKS [Neuropeptide S]
[II] SFKN-NH2 [4. SerPheLysAsn-NH2]
-- ask Looking at recorded values for EC50 of cAMP accumulation, HEK 293T hNPSR-107I cells, does I or II come in lower? Answer = label.
-- reply I
(I: 4.19 nM, II: 117 nM)
